Target: glutathione-S-transferase (GST) tagged LXRbeta LBD (ligand binding domain) (Homo sapiens, UniProt P55055)
Sequence (P55055 222-460 limits assumed): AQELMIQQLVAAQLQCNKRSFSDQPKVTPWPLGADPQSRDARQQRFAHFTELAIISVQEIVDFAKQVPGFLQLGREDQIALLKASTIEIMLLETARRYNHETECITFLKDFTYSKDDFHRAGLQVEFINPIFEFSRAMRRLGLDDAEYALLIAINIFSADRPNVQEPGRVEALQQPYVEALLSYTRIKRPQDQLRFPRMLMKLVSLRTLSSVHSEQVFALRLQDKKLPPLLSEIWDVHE
Assay: LanthaScreen TR-FRET Liver X Receptor Coactivator Assay, LXR beta-LBD
Settings: potency (Inflection Point) of co-activator recruitment, TR-FRET; read-out: LXR beta IP
observable: EC50 (nM)

## Task Can you look up the measured EC50 of CC(C)(C)OC(=O)N1CCN(c2ncc(-c3ccc(C(=O)N4CCOCC4)c(Cl)c3)cc2C#N)CC1 for me?
## Result 332

(P) CCCC(O)(C(=O)N1CCN(c2ncc(-c3ccc(C(=O)N(C)C)c(Cl)c3)cc2C#N)CC1)C(F)(F)C(F)(F)F (stereo not shown)
(Q) CCC(O)(C(=O)N1CCN(c2ncc(-c3ccc(C(=O)N(C)C)c(Cl)c3)cc2C#N)CC1)C(F)(F)F (stereo not shown)
## Task Which item exceeds the other in EC50, P or Q ? Lab note: record the label of whichever item you select.
## Result P

(1) CN(C)C(=O)c1ccc(-c2cnc(N3CCN(C(=O)OCc4c(Cl)cccc4Cl)CC3)c(C#N)c2)cc1Cl
(2) CN(C)C(=O)c1ccc(-c2cnc(N3CCN(C(=O)C(C)(C)C)CC3)c(C#N)c2)cc1Cl
(3) CN(C)C(=O)c1ccc(-c2ccc(N3CCN(C(=O)c4c(F)cccc4Cl)CC3)c(Cl)c2)cc1Cl
(4) CN(C)C(=O)c1ccc(-c2cnc(N3CCN(C(=O)C(O)(C4CCCCC4)C(F)(F)F)CC3)c(C#N)c2)cc1Cl (stereo not shown)
## Task Order the 4 molecules from highest to lowest EC50. Provide your answer as the labels ordered per the instruction.
## Result 4, 2, 3, 1

* * *

Target: glutathione-S-transferase (GST) tagged LXRbeta LBD (ligand binding domain) (Homo sapiens, UniProt P55055)
Construct: purchased Invitrogen pv4658.pps
Assay: LanthaScreen TR-FRET Liver X Receptor Coactivator Assay, LXR beta-LBD
Format: biochemical
Conditions: efficacy in relation to reference dual agonist T1317; read-out: LXR beta activity at max dose (%) (Emax)
observable: Emax (%)

## Task Can you look up the measured Emax of CN(C)C(=O)c1ccc(-c2cnc(N3CCN(S(=O)(=O)C4CC4)CC3)c(C#N)c2)cc1Cl [Example 1-2] for me?
## Result 68

## Task Next compound up: COc1cc(-c2cnc(N3CCN(C(=O)OC(C)(C)C)CC3)c(C#N)c2)ccc1C(=O)N(C)C [Example 8-2]
## Result 73

## Task Next compound up: CN(C)C(=O)c1ccc(-c2cnc(N3CCN(C(=O)[C@](O)(c4ccccc4)C(F)(F)F)CC3)c(C#N)c2)cc1Cl [Example 2-2]
## Result 102

(A) CNC(=O)c1ccc(-c2cnc(N3CCN(C(=O)C(C)(C)C)CC3)c(C#N)c2)cc1Cl [Example 6-2]
(B) CC(C)C(O)(C(=O)N1CCN(c2ccc(-c3ccc(C(=O)N(C)C)c(Cl)c3)cc2)CC1)C(F)(F)F (centres unmarked) [Example 4-18]
## Task Input pair: A , B . Output: entry with lower Emax. Lab note: record the label of whichever item you select.
## Result B
(B: 65%, A: 98%)

* * *

Biological target: glutathione-S-transferase (GST) tagged LXRalpha LBD (ligand binding domain) (Homo sapiens, UniProt Q13133)
Sequence (Q13133 209-447 limits assumed): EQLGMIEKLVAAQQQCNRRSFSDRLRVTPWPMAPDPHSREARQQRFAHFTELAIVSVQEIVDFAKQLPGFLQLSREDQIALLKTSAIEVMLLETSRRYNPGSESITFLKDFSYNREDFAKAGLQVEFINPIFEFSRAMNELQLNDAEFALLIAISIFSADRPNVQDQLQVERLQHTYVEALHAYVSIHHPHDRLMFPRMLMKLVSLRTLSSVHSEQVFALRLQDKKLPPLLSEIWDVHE
Assay: LanthaScreen TR-FRET Liver X Receptor Coactivator Assay, LXR alpha-LBD
Details: potency (Inflection Point) of co-activator recruitment, TR-FRET; read-out: LXR alpha IP
pEC50: −log10 of the molar value.
observable: pEC50

// below: answered compounds
## Task Can you look up the measured pEC50 of CCC(O)(C(=O)N1CCN(c2ncc(-c3ccc(C(=O)N(C)C)c(Cl)c3)cc2C#N)CC1)C(F)(F)F (centres unmarked) for me?
## Result 5.22

## Task Next compound up: CN(C)C(=O)c1ccc(-c2cnc(N3CCN(C(=O)[C@](C)(O)c4ccccc4)CC3)c(C#N)c2)cc1Cl
## Result 4.22

## Task Next compound up: CN(C)C(=O)c1ccc(-c2ccc(N3CC4CCC3CN4C(=O)OC(C)(C)C)c(Cl)c2)cc1Cl (centres unmarked)
## Result 5.80

## Task Next compound up: C#Cc1cc(-c2ccc(C(=O)N(C)C)c(Cl)c2)cnc1N1CCN(C(=O)OC(C)(C)C)CC1
## Result 5.63

## Task Next compound up: CN(C)C(=O)c1c(Cl)cc(-c2cnc(N3CC4CCC3CN4C(=O)OC(C)(C)C)c(C#N)c2)cc1Cl (centres unmarked)
## Result 6.17

## Task Next compound up: CN(C)C(=O)c1ccc(-c2cnc(N3CCN(C(=O)[C@@](C)(O)C(F)(F)F)CC3)c(C#N)c2)cc1Cl
## Result 4.88

## Task Next compound up: CN(C)C(=O)c1ccc(-c2ccc(N3CC4CCC(C3)N4C(=O)OC(C)(C)C)cc2)cc1Cl
## Result 4.93

## Task Next compound up: CN(C)C(=O)c1ccc(-c2cnc(N3CCN(C(=O)[C@@](O)(c4ccccc4)C(F)(F)F)CC3)c(C#N)c2)cc1Cl
## Result 5.14

(a) CN(C)C(=O)c1ccc(-c2cnc(N3CCN(C(=O)C(C)(C)C)CC3)c(C#N)c2)cc1Cl
(b) CC(C)C(=O)C(=O)N1CCN(c2ncc(-c3cc(Cl)c(C(=O)N(C)C)c(Cl)c3)cc2C#N)CC1
## Task Input pair: a , b . Output: entry with lower pEC50. Lab note: record the label of whichever item you select.
## Result a
(a: 5.32, b: 5.69)

(a) CN(C)C(=O)c1ccc(-c2cnc(N3CCN(C(=O)C4(c5ccccc5)CCCC4)CC3)c(C#N)c2)cc1Cl
(b) Cc1nc(CCN(C)C(=O)c2ccc(-c3cnc(N4CCN(C(=O)OC(C)(C)C)CC4)c(C#N)c3)cc2Cl)no1
(c) CN(C)C(=O)c1ccc(-c2cnc(N3CCN(C(=O)c4c(F)cccc4Cl)CC3)c(C#N)c2)cc1Cl
## Task Order the 3 compounds from highest to lowest pEC50. Provide your answer as the labels ordered per the instruction.
## Result a, b, c

* * *

Target: glutathione-S-transferase (GST) tagged LXRalpha LBD (ligand binding domain) (Homo sapiens, UniProt Q13133)
Sequence (Q13133 209-447 limits assumed): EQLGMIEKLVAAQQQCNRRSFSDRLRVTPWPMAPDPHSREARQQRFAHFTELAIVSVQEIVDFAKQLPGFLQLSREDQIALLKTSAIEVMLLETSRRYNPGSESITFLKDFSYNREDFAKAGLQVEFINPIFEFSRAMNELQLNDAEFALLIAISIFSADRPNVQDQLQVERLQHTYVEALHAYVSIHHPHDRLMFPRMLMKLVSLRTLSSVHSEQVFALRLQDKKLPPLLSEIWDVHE
Assay: LanthaScreen TR-FRET Liver X Receptor Coactivator Assay, LXR alpha-LBD
Settings: potency (Inflection Point) of co-activator recruitment, TR-FRET; read-out: LXR alpha IP
observable: EC50 (µM)

// below: answered molecules
## Task Can you look up the measured EC50 of CC(C)(C)OC(=O)N1CCN(c2ncc(-c3ccc(C(=O)N4CCCCC4)c(Cl)c3)cc2C#N)CC1 [Example 5-11] for me?
## Result 11.7

## Task Next molecule up: CC(C)C(O)(C(=O)N1CCN(c2ncc(-c3cc(Cl)c(C(=O)N(C)C)c(Cl)c3)cc2C#N)CC1)C(F)(F)F (single isomer, unassigned) [Example 7-6]
## Result 0.76

## Task Next molecule up: CN(C)C(=O)c1ccc(-c2cnc(N3CCN(C(=O)OC(C)(C)C)CC3)c(C#N)c2)cc1C1CC1 [Example 9-4]
## Result 4.63

(A) CN(Cc1cnn(C)c1)C(=O)c1ccc(-c2cnc(N3CCN(C(=O)OC(C)(C)C)CC3)c(C#N)c2)cc1Cl [Example 5-22]
(B) CN(C)C(=O)c1ccc(-c2cnc(N3CCN(S(=O)(=O)Cc4ccccc4F)CC3)c(C#N)c2)cc1Cl [Example 1-10]
## Task Which item exceeds the other in EC50, A or B ? Lab note: record the label of whichever item you select.
## Result A

Measured values drawn from patent US10239849B2 for this set.
